Let's look at some binders and their measured IC50.
Target: T1, Active phosphorylated His6-tagged ERK2 E320K (rat (p-0033 says mouse)), P63086
T1 chain: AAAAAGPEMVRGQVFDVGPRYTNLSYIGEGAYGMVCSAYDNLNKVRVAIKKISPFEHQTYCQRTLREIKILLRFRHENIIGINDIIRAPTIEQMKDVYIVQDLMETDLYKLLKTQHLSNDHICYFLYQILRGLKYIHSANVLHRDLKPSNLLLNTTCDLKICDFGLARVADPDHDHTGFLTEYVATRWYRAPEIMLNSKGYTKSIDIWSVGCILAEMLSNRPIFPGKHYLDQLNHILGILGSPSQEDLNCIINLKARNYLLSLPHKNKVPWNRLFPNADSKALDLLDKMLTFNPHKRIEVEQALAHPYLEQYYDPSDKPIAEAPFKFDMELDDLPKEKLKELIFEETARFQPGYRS
Assay: competitive peptide kinase assay; D-peptide titrated as competitive inhibitor of 10 nM ERK2 on 5 μM D-site dependent reporter peptide (AQT0376), 10 μM ATP; 54 mM HEPES pH 7.4, 1.2 mM DTT, 0.01% Brij-35, 1% glycerol, 0.2 mg/ml BSA, 10 mM MgCl2; fluorescence read-out; IC50 as relative binding affinity
Your answer should be a plain number; it is taken to be in µM.

[
  {
    "BINDER": "IGRARRGLPRLAVSD (modifications not checked) [ISG20 D-peptide G2+]",
    "IC50 / µM": 170
  }
]

Prompt: Request the reported IC50 associated with IRARRGGLPRLAVSD (modifications not checked) [ISG20 D-peptide G7+]
Completion: 210
